TESTED_SYSTEM: Alpha-1A adrenergic receptor (Rattus norvegicus)
ASSAY_NAME: Antagonist activity against Alpha-1A adrenergic receptor (-)-noradrenaline-induced contraction of rat prostatic vas deferens
Format: functional, tissue-based
# reported pKb; entries follow
Respond numerically, and do not add a unit to the figure.

| COMPOUND | TEST_RESULT |
| --- | --- |
| O[C@@H]1[C@H](NC[C@@H]2COc3ccccc3O2)CC[C@H]1Oc1ccccc1 | 6.1 |

q: Test system Alpha-1A adrenergic receptor (Rattus norvegicus); read-out pKb; what value for COc1ccccc1O[C@@H]1CCC(NCC2COc3ccccc3O2)C1O (stereo in doubt; 5) ?
a: 5.68

q: Test system Alpha-1A adrenergic receptor (Rattus norvegicus); read-out pKb; what value for COc1cccc(OC)c1O[C@@H]1CCC(NCC2COc3ccccc3O2)C1O (stereo in doubt; 8) ?
a: 5.79

q: Test system Alpha-1A adrenergic receptor (Rattus norvegicus); read-out pKb; what value for COc1cccc(OC)c1OCCNCC1COc2ccccc2O1 (stereo unspecified) ?
a: 9.36

q: Test system Alpha-1A adrenergic receptor (Rattus norvegicus); read-out pKb; what value for O[C@@H]1[C@H](NC[C@H]2COc3ccccc3O2)CC[C@H]1Oc1ccccc1 ?
a: 6.55

q: Test system Alpha-1A adrenergic receptor (Rattus norvegicus); read-out pKb; what value for COc1ccccc1O[C@@H]1CCC(NCC2COc3ccccc3O2)C1O (stereo in doubt; 6) ?
a: 6.56

q: Test system Alpha-1A adrenergic receptor (Rattus norvegicus); read-out pKb; what value for O[C@H]1[C@@H](NC[C@H]2COc3ccccc3O2)CC[C@@H]1Oc1ccccc1 ?
a: 5.65

q: Test system Alpha-1A adrenergic receptor (Rattus norvegicus); read-out pKb; what value for OC1C(NCC2COc3ccccc3O2)CC[C@H]1Oc1ccccc1 (stereo in doubt; 3) ?
a: 5.48

q: Test system Alpha-1A adrenergic receptor (Rattus norvegicus); read-out pKb; what value for OC1C(NCC2COc3ccccc3O2)CC[C@H]1Oc1ccccc1 (stereo in doubt; 4) ?
a: 5.7

q: Test system Alpha-1A adrenergic receptor (Rattus norvegicus); read-out pKb; what value for COc1cccc(OC)c1O[C@@H]1CCC(NCC2COc3ccccc3O2)C1O (stereo in doubt; 7) ?
a: 5.89
